- SYSTEM_TESTED: tau (Homo sapiens)
- Sequence (P10636 623-695 limits assumed): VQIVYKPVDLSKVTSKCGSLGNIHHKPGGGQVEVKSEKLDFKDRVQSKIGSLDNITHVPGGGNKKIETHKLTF
- PROTOCOL: MCE Phenols Library screening, tau biosensor cell seeding assay (AvZ)
- Assay type: cell-based
- APPLIED_CONDITIONS: average Z score of two replicates, Phenols Library screen
MEASURED_ENDPOINT: av Z

Below, 5 compounds whose answers are already recorded.
COc1cc2c(=O)c3c(O)c([C@@H]4O[C@H](CO[C@@H]5OC[C@](O)(CO)[C@H]5O)[C@@H](O)[C@H](O)[C@H]4O)c(O)cc3oc2cc1O    0.083
O=C(CCCCCCCCc1ccc(O)c(O)c1)c1c(O)cccc1O    -0.018
Oc1ccc([C@H]2COc3cc(O)ccc3C2)cc1 [(-)-(S)-Equol]    -0.075
COc1cc(/C=C/C(=O)O[C@H]2C[C@@](O)(C(=O)O)C[C@H](O)[C@@H]2O)ccc1O (stereo in doubt)    -0.172
O=C(/C=C/c1ccc(O)c(O)c1)c1ccc(O)cc1O    -0.031

Give me measured av Z, please, for this compound: COc1cc(O)c2c(=O)c3c(O[C@@H]4O[C@H](CO)[C@@H](O)[C@H](O)[C@H]4O)ccc(O)c3oc2c1
-0.031

Look up av Z of C[C@H]1CCCC(=O)CCCCCc2cc(O)cc(O)c2C(=O)O1 and report it.
-0.194

Determine from records and report av Z for COc1ccc2cc3[n+](cc2c1OC)CCc1cc(O)c(O)cc1-3
-0.146

Name the recorded av Z of the item COc1cc([C@@H]2Oc3c(O)cc([C@H]4Oc5cc(O)cc(O)c5C(=O)[C@@H]4O)cc3[C@H]2CO)ccc1O in your answer.
0.012

Write down av Z measured for item CC[C@@H](C(=O)[C@@H](C)[C@@H](O)[C@H](C)CCc1ccc(C)c(O)c1C(=O)O)[C@H]1O[C@](CC)([C@H]2CC[C@](O)(CC)[C@H](C)O2)C[C@@H]1C
0.096

Reference for the values: paper PMC11784839
